We begin with a simple list: items and their reported IC50.
molecular target: PDE1B (Homo sapiens); assay: In vitro HTRF PDE1 inhibition assay (PDE1B); type: biochemical; details: in vitro PDE1B HTRF Assay; read-out: IC50
Sequence (Q01064 whole entry): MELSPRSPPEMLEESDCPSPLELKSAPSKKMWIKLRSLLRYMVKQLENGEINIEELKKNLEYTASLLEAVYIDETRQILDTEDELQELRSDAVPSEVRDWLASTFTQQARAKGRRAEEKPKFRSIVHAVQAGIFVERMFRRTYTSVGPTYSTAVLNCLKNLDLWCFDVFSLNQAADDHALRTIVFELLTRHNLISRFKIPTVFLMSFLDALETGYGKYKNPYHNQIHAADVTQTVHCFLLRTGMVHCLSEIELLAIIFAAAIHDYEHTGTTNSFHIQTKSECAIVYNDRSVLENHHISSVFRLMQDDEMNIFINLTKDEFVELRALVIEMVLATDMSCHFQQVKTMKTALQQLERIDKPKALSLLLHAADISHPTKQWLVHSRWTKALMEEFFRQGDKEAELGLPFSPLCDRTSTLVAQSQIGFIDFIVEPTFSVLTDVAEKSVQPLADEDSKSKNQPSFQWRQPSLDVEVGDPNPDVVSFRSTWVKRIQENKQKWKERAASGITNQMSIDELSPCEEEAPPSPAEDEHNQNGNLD

- COMPOUND: "Cn1c(OC2CCC(C)(C)CC2)nn2c(C3CCOCC3)ncc2c1=O [Example 302]"
  IC50: "< 1000 nM"
- COMPOUND: "CO[C@H]1CC[C@@H](Oc2nn3c(C4CCOCC4)ncc3c(=O)n2C)CC1 [Example 312]"
  IC50: "< 1000 nM"
- COMPOUND: "COc1nn2c(C3CCOCC3)ncc2c(=O)n1Cc1cccnc1 [Example 267]"
  IC50: "1000 to 10000 nM"
- COMPOUND: "Cn1c(OCC2CC(F)(F)C2)nn2c(C3CCOCC3)ncc2c1=O [Example 33]"
  IC50: "< 1000 nM"
- COMPOUND: "CC(C)c1ncc2c(=O)n(C)c(NCc3ccc(Cl)cc3)nn12 [Example 141]"
  IC50: "< 1000 nM"
- COMPOUND: "Cn1c(OCc2ccc(-c3ccc(Cl)cn3)cc2)nn2c(C3CCOCC3)ncc2c1=O [Example 50]"
  IC50: "< 1000 nM"
- COMPOUND: "Cn1c(OCC23CC4CC(CC(C4)C2)C3)nn2c(C3CCOCC3)ncc2c1=O [Example 298]"
  IC50: "< 1000 nM"
- COMPOUND: "Cn1c(OCc2ccncc2)nn2c(C3CCOCC3)ncc2c1=O [Example 25]"
  IC50: "< 1000 nM"
- COMPOUND: "CCn1c(OCCc2ccc(-c3ccccc3)cc2)nn2c(C3CCOCC3)ncc2c1=O [Example 77]"
  IC50: "< 1000 nM"

###

molecular target: PDE1B (Homo sapiens); assay: In vitro HTRF PDE1 inhibition assay (PDE1B); type: biochemical; settings: in vitro PDE1B HTRF Assay; read-out: IC50
pIC50: −log10 of the molar value.
We begin with a simple list: items and their reported pIC50.
ENDPOINT: pIC50

- INPUT SMILES: "CCn1c(NCc2ncccc2C)nn2c(C(C)C)ncc2c1=O"
  RESULT: "5.00 to 6.00"
- INPUT SMILES: "CCn1c(OCCCc2ncccc2F)nn2c(C3CCOCC3)ncc2c1=O"
  RESULT: "> 6.00"
- INPUT SMILES: "CCn1c(OCCCc2ccncc2)nn2c(C3CCOCC3)ncc2c1=O"
  RESULT: "> 6.00"
- INPUT SMILES: "CC(C)c1ncc2c(=O)n(C)c(NCc3ccc(C#N)cc3)nn12"
  RESULT: "> 6.00"
- INPUT SMILES: "CCn1c(O[C@H]2CC[C@H](C(F)(F)F)CC2)nn2c(C3CCOCC3)ncc2c1=O"
  RESULT: "> 6.00"
- INPUT SMILES: "COCCn1c(N2CCCC2)nn2c(C3CCOCC3)ncc2c1=O"
  RESULT: "4.00 to 5.00"
- INPUT SMILES: "CC(C)c1ncc2c(=O)n(C)c(N[C@H]3CCCc4ccccc43)nn12"
  RESULT: "> 6.00"
- INPUT SMILES: "Cn1c(N2CCOCC2)nn2c(C3CCOCC3)ncc2c1=O"
  RESULT: "> 6.00"
